target: Pantothenate synthetase (Mycobacterium tuberculosis, UniProt P9WIL5)
Sequence (P9WIL5 whole entry): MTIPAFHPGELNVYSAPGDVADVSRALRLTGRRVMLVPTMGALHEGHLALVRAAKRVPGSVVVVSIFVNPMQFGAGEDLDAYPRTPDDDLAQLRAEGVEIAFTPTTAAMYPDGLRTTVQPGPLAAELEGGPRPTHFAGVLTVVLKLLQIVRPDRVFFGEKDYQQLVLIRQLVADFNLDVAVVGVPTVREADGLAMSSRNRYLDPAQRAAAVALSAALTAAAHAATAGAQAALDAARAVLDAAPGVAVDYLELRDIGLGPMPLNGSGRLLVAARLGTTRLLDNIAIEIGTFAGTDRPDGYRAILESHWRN
MEASURED_PARAMETER: IC50 (nM)

[[record]]
substance_smiles = "COc1ccc(-n2cc(Cn3nc(-c4ccccc4)c4c3CCN(C(=O)Nc3ccccc3)C4)nn2)cc1"
measurement = 1010


---

test: Selectivity index, ratio of cytotoxic concentration for HEK293 cells to MIC for Mycobacterium tuberculosis H37Rv ATCC 27294; type: toxicity; conditions: human, read-out: Selectivity Index
MEASURED_PARAMETER: selectivity ratio

[[record]]
substance_smiles = "O=C(N/N=C1/C(=O)N(Cc2ccc(Cl)cc2)c2ccccc21)c1ccc(-n2cc(-c3ccccc3)nn2)cc1O"
measured_parameter = "selectivity ratio"
measurement = "> 128"


Source listed as ChEMBL document CHEMBL4190261.
